- measurement-description: viability rescue of complex I mutant cybrids, primary screen, cell-based, galactose medium, ATP luminescence (AID 1645843);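 note: positive z means more ATP and so rescue of galactose-driven cybrid death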
- cond: complex I mutant cybrid cells, 72 h, stronger effect = higher value
So basically: z-score at -0.4 or higher? That is met. Lower than -0.4? That is not met.

COc1ccc([C@@H]2CNC(=O)C2)cc1OC1CCCC1
met
CCCCCCCC/C=C\CCCCCCCC(N)=O
not met
CC(C)N=c1cc2n(-c3ccc(Cl)cc3)c3ccccc3nc-2cc1Nc1ccc(Cl)cc1
not met
C[C@H]1[C@@H](OC(=O)CCC(=O)O)O[C@@H]2OC3(C)CC[C@H]4[C@H](C)CC[C@@H]1[C@@]24OO3
not met
CC(=O)C1(O)CCC2C3CC(C)C4=CC(=O)C=CC4(C)C3(F)C(O)CC21C (stereo not drawn)
met
C=C1/C(=C\C=C2/CCC[C@]3(C)[C@@H]([C@H](C)CCCC(C)(C)O)CC[C@@H]23)C[C@@H](O)C[C@@H]1O
not met
CCN(CC)CCOc1ccc(Nc2ncc3cc(-c4c(Cl)cccc4Cl)c(=O)n(C)c3n2)cc1
not met
Nc1ccn(C2CSC(CO)O2)c(=O)n1 (stereo not drawn)
met
CC(C)(C)n1nc(-c2ccc(Cl)cc2)c2c(N)ncnc21
met
CC(Oc1ccc(O)cc1)(P(=O)(O)O)P(=O)(O)O
met
CC1(C)SC2C(NC(=O)Cc3ccccc3)C(=O)N2C1C(=O)O (stereo not drawn)
met
CCN(CC)CCCC(C)Nc1nc(C)cc(Nc2ccc3nc(C)cc(N)c3c2)n1 (stereo not drawn)
met
N#C/C(=C\c1ccc(O)c(O)c1)C(=O)NCc1ccccc1
not met
